These entries and their values trace back to patent US8557816B2.

# IC50 per record follows
# system.under.test: AuroraA-TPX2 (Homo sapiens)
# Construct: 20 μL of AuroraA-TPX2 KD GST for a final volume of about 41 μL; GST
# run.description: AuroraA-TPX2 Homogeneous Time Resolved Fluorescent (HTRF) kinase assay
# Format: biochemical
# condition.description: average; read-out: AurA_IC50_IP (uM Avg)
Give the value; after it, write the unit.

// worked examples, IC50 included
c1ccc(-c2nnc(Nc3ccc(Oc4ccnc5cc(-c6cn[nH]c6)ccc45)cc3)c3ccccc23)cc1 :: 0.009 µM
COc1ccc2c(Cc3ccc(Nc4nnc(-c5ccc(Cl)cc5)c5ccccc45)cc3)ccnc2c1 :: 0.047 µM

Challenge: Look up IC50 for this compound: COc1ccc2c(Sc3ccc(Nc4nnc(-c5ccc(Cl)cn5)c5ccccc45)cc3)ccnc2c1
Response given: 0.036 µM

Challenge: How about this compound: Cc1ccc(-c2nnc(Nc3ccc(Oc4ccnc5cc(C#N)ccc45)cc3)c3ccccc23)cc1
Response given: 0.006 µM

* * *

# system.under.test: AuroraA-TPX2 (Homo sapiens, UniProt O14965)
# Construct: 20 μL of AuroraA-TPX2 KD GST for a final volume of about 41 μL; GST
# Sequence (O14965 133-383 limits assumed): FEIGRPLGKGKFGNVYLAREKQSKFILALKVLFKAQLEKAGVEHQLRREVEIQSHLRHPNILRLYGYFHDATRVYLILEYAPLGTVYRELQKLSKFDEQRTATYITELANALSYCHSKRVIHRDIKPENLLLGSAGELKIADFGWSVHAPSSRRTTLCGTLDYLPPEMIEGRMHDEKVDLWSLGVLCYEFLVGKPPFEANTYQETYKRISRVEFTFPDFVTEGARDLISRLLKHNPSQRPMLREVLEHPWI
# Sequence (Q9ULW0 1-43 partner limits assumed): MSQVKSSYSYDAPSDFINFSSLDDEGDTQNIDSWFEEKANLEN
# run.description: AuroraA-TPX2 Homogeneous Time Resolved Fluorescent (HTRF) kinase assay
# Format: biochemical
# condition.description: average; read-out: AurA_IC50_IP (uM Avg)
# Procedure: AuroraA-TPX2-Homogeneous Time Resolved Fluorescent (HTRF) Kinase Assay: The Aurora-A HTRF assay begins with Aurora-A in the presence of ATP phosphorylating the biotinylated peptide PLK. The reaction incubates for about 120 min. […] The assay is quenched and stopped with 160 μL of detection reagent. […] Added to this buffer prior to reading is Steptavidin allophycocyanin (SA-APC) at a final conc in the assay of 0.0005 mg/mL, and europilated anti-phosphoPLK Ab (Eu-anti-PLK) at a final conc of 0.02 nM. […]
Label true when IC50 is strictly below 0.1 µM; otherwise label false.

COc1cc2nccc(Sc3ccc(Nc4nnc(-c5ccccc5)c5ccccc45)cc3)c2cn1 [compound 353] :: true
Clc1ccc(-c2nnc(Nc3ccc(Sc4ccnc5cc(C6CC6)oc45)cc3)c3ccccc23)cc1 [compound 486] :: false
c1ccc2c(-c3ccc4c(c3)OCO4)nnc(Nc3ccc(Sc4ccnc5ccncc45)cc3)c2c1 [compound 427] :: true
COc1cnc2c(Oc3ccc(Nc4nnc(-c5nccn5C)c5ccccc45)cc3)ccnc2c1 [Example 30] :: false
N#Cc1ccc2c(Oc3ccc(Nc4nnc(-c5ccc(Cl)c(C#N)c5)c5ccccc45)cc3)ccnc2c1 [compound 231] :: false

Challenge: Take the compound Cc1csc(-c2nnc(Nc3ccc(Oc4ccnc5cc(C(N)=O)ccc45)cc3)c3ccccc23)n1 [compound 95] and say whether its IC50 is less than 0.1 µM.
Response given: true

Challenge: How about this compound: CS(=O)(=O)CCOc1ccc2nccc(Sc3ccc(Nc4nnc(-c5ccc(Cl)cc5)c5ccccc45)cc3)c2c1 [Example 390]
Response given: false

Challenge: How about this compound: COc1cnc2c(Sc3ccc(Nc4nnc(N5CCC(C(F)(F)F)CC5)c5ccccc45)cc3)ccnc2c1 [compound 523]
Response given: true

* * *

# log10 IC50 per record follows
# system.under.test: AuroraB (Homo sapiens)
# Construct: 20 μL of AuroraB FL H is for a final volume of 41 μL; His
# Sequence (Q96GD4 whole entry): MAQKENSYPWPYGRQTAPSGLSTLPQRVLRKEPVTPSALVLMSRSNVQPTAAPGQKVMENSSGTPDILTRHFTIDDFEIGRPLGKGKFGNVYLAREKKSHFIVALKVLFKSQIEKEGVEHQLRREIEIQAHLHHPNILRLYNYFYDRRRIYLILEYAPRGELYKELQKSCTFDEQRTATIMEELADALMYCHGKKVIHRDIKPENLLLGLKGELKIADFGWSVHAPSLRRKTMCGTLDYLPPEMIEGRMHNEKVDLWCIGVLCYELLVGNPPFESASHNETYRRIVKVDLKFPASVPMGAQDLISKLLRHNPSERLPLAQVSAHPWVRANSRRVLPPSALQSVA
# run.description: AuroraB Homogeneous Time Resolved Fluorescent (HTRF) kinase assay
# Type: biochemical
# condition.description: average; read-out: AurB_IC50_IP (uM Avg)
In our notation, the value equals log10 of IC50 in µM.

CCc1cc(N2CCCCC2)nnc1Nc1ccc(Oc2ccnc3cc(OC)cnc23)cc1 [compound 321] :: -1.29
Cc1csc(-c2nnc(Nc3ccc(Sc4ccnc5cc(OC(F)(F)F)ccc45)cc3)c3ccccc23)c1 [compound 499] :: -0.44
COc1cnc2c(Sc3ccc(Nc4nnc(NCCCSC)c5ccccc45)cc3)ccnc2c1 [compound 508] :: -2.05
Cc1noc(-c2cc3nccc(Oc4ccc(Nc5nnc(-c6ccccc6)c6ccccc56)cc4)c3s2)n1 [compound 288] :: -1.41
COc1cnc2c(Oc3ccc(Nc4nnc(-c5cccc(OC)n5)c5ccccc45)cc3)ccnc2c1 [compound 99] :: -2.70

Challenge: Look up log10 IC50 for this molecule: CCc1cc(-c2ccc3c(c2)OCO3)nnc1Nc1ccc(Oc2ccnc3cc(OC)cnc23)cc1 [compound 594]
Response given: -1.29

Challenge: How about this molecule: CCc1cc(-c2ccccc2)nnc1Nc1ccc(Oc2ccnc3cc(OC)cnc23)nc1 [compound 83]
Response given: -2.00

Challenge: How about this molecule: COc1cnc2c(Oc3ccc(Nc4nnc(-c5ccc(S(C)(=O)=O)cc5)c5ccccc45)cc3)ccnc2c1 [compound 263]
Response given: -2.70

Challenge: How about this molecule: COc1ccc2nccc(Sc3ccc(Nc4nnc(-c5ccc(Cl)cc5)c5ccccc45)cc3)c2c1 [compound 297]
Response given: -1.51

Challenge: How about this molecule: CC(=O)Nc1ccc2nccc(Oc3ccc(Nc4nnc(-c5ccccc5)c5ccccc45)cc3)c2c1 [Example 43]
Response given: -2.10

Challenge: How about this molecule: Oc1cc(-c2nnc(Nc3ccc(Sc4ccnc5cccnc45)cc3)c3ccccc23)ccc1Cl [compound 452]
Response given: -2.52

Challenge: How about this molecule: COc1cnc2c(Oc3ccc(Nc4nnc(-c5ccc6sc(C)nc6c5)c5ccccc45)cc3)ccnc2c1 [compound 195]
Response given: -2.30

Challenge: How about this molecule: Clc1ccc(-c2nnc(Nc3ccc(Sc4ccnc5cc(C6CC6)oc45)cc3)c3ccccc23)cc1 [compound 486]
Response given: -1.74

Challenge: How about this molecule: COc1cc(F)cc2nccc(Oc3ccc(Nc4nnc(-c5cc(C)cs5)c5ccccc45)cc3)c12 [compound 442]
Response given: -1.77
